# Test system: L1210 leukemia ip in BDF1 mice, survival T/C
# assay protocol: NCI In Vivo Anticancer Drug Screen. Data for tumor model L1210 Leukemia (intraperitoneal) in B6D2F1 (BDF1) mice
# setup conditions: endpoint: mean survival time; dose: 100.0 mg/kg/injection; schedule: Q01DX009 (ip); vehicle: Klucel (hydroxypropylcellulose) (HPC); higher = longer survival
Inconclusive results and toxic doses are left out.
property measured: T/C

| smiles string | subject of test | T/C |
| --- | --- | --- |
| CCOc1ccc(-n2cnc3c(=O)[nH]c(N)nc32)cc1 | L1210 leukemia ip in BDF1 mice, survival T/C | 93 % of control |
| Cc1ccc(NC(=O)Oc2ccc(C(C)(C)C)cc2)cc1NC(=O)Oc1ccc(C(C)(C)C)cc1 | L1210 leukemia ip in BDF1 mice, survival T/C | 97 % of control |

Query: T/C; subject: `CNC(=O)C(C)(C)c1ccccc1` 97 % of control

----------
# Tested on: L1210 leukemia ip in BDF1 mice, survival T/C
# assay protocol: NCI In Vivo Anticancer Drug Screen. Data for tumor model L1210 Leukemia (intraperitoneal) in B6D2F1 (BDF1) mice
# setup conditions: endpoint: mean survival time; dose: 200.0 mg/kg/injection; schedule: Q01DX001 (ip); vehicle: Klucel (hydroxypropylcellulose) (HPC); higher = longer survival
# Experimental: The antitumor activity of compounds was measured in mice bearing transplantable tumors. Survival or tumor size were measured and the results are expressed as the measurement made in the treated group (T) divided by the measurement made in the vehicle treated control group (C). The tumor model used in this assay is L1210 Leukemia (intraperitoneal) in B6D2F1 (BDF1) mice
Toxic doses and inconclusive results are not listed.
property measured: T/C

Consider the following illustrative entries.
| molecule | T/C |
| --- | --- |
| O=C(O)CSc1ccccc1C(=O)O | 120 % of control |
| CS(=O)Cc1cccc2ccccc12 (configuration not stated) | 116 % of control |
| O=C(Nc1ccccn1)Nc1cc(C(F)(F)F)ccc1Cl | 91 % of control |
| CC1(CC(=O)NN)OCCO1 | 102 % of control |
| CN1CN(c2ccccc2)C2(CCN(c3nc4ccccc4s3)CC2)C1=O | 94 % of control |
| CON(C)S(=O)(=O)c1ccc([N+](=O)[O-])cc1 | 98 % of control |

If you can, please state the reported T/C value of ClC1(Cl)C2CCC3(CC21)OCCO3 (configuration not stated) . 106 % of control

----------
# Test system: L1210 leukemia ip in BDF1 mice, survival T/C
# assay protocol: NCI In Vivo Anticancer Drug Screen. Data for tumor model L1210 Leukemia (intraperitoneal) in B6D2F1 (BDF1) mice
# setup conditions: endpoint: mean survival time; dose: 200.0 mg/kg/injection; schedule: Q04DX003 (ip); vehicle: saline; higher = longer survival
Inconclusive results and toxic doses are left out.
property measured: T/C

Name the recorded T/C for `O=[N+]([O-])c1cc(Cl)c(Cl)cc1NCCCO` . 96 % of control

Repeat for the following compound: COC(=O)C(N)CCl (stereo not given) 102 % of control

Next compound: `CCOC(=O)Cc1nnn(C)n1` 90 % of control

Please answer likewise for `COC(=O)Cc1cc(=O)c2cc(C)ccc2[nH]1` 94 % of control

Let us now turn to O=S1(=O)CC(O)C(Cl)C1 (stereo not given) 94 % of control

Field entry: `N/C=N/O` 111 % of control

One more compound: `CNc1ccccc1C(N)=S` 105 % of control

Also `CC(=O)NCCOc1ccc(N)cc1` ? 98 % of control

Query `O=C1CN(Br)C(=O)N1Br` next 105 % of control

Same for `CCCNc1ncnc2c1cnn2C` 103 % of control

What would you report for `COc1ccc2ncc(CO)cc2c1` ? 98 % of control

Also `CC[Si](Cl)(CC)CCCl` ? 97 % of control

----------
# Tested on: L1210 leukemia ip in BDF1 mice, survival T/C
# assay protocol: NCI In Vivo Anticancer Drug Screen. Data for tumor model L1210 Leukemia (intraperitoneal) in B6D2F1 (BDF1) mice
# setup conditions: endpoint: mean survival time; dose: 100.0 mg/kg/injection; schedule: Q04DX003 (ip); vehicle: saline; higher = longer survival
Toxic doses and inconclusive results are not listed.
property measured: T/C

| molecule | experimental result |
| --- | --- |
| CCN(CC)CCOCCO | 96 % of control |
| NC1CCC(CC2CC3CCC2C3)CC1 (centres undefined) | 96 % of control |
| CC(O)C(C)(O)C(=O)O (centres undefined) | 104 % of control |
| CC(=O)Nc1ccc(S(N)(=O)=O)cn1 | 102 % of control |
| C1=CC2(OCCO2)C2CC=CC3(OCCO3)C2C1 (centres undefined) | 109 % of control |

Dear colleague, I am looking for the recorded T/C of the following molecule: COC(=O)NC1CC(OC(=O)c2ccc(C)cc2)C(COC(=O)c2ccc(C)cc2)O1 (centres undefined) 100 % of control

Next molecule: O=C(NCc1ccccc1)C1C2CC3OC(=O)C1C3C2 (centres undefined) 123 % of control

Would you kindly repeat that for `Nc1ccc(Oc2ccc(S(=O)(=O)O)cc2)cc1` ? 93 % of control

----------
# Test system: L1210 leukemia ip in BDF1 mice, survival T/C
# assay protocol: NCI In Vivo Anticancer Drug Screen. Data for tumor model L1210 Leukemia (intraperitoneal) in B6D2F1 (BDF1) mice
# setup conditions: endpoint: mean survival time; dose: 200.0 mg/kg/injection; schedule: Q01DX001 (ip); vehicle: saline; higher = longer survival
Inconclusive results and toxic doses are left out.
# T/C per record follows

Field: example entries. Status: answers known.
| compound | experimental result |
| --- | --- |
| COc1ccc(CCNC2CC3CCC2(C)C3(C)C)cc1OC (configuration not stated) | 96 % of control |
| COc1ccccc1C1OC1C(=O)O (configuration not stated) | 94 % of control |
| CCC1(C)NC(=O)NC1=O (configuration not stated) | 102 % of control |

Given the entry O=C(OCC1OC(OC(=O)c2ccccc2)C(OC(=O)c2ccccc2)C(OC(=O)c2ccccc2)C1OC(=O)c1ccccc1)c1ccccc1 (configuration not stated) , report its measured T/C. 98 % of control

Try this compound too: `COc1ccc(OC)c2c(C)c(C)[nH]c12` 109 % of control

Consider next the compound `NC(=O)C1=CNCCC1` in the same way. 109 % of control

What would you report for `CCOC(=O)c1cc([N+](=O)[O-])ccc1N` ? 94 % of control

----------
# Tested on: L1210 leukemia ip in BDF1 mice, survival T/C
# assay protocol: NCI In Vivo Anticancer Drug Screen. Data for tumor model L1210 Leukemia (intraperitoneal) in B6D2F1 (BDF1) mice
# setup conditions: endpoint: mean survival time; dose: 100.0 mg/kg/injection; schedule: Q04DX003 (ip); vehicle: Klucel (hydroxypropylcellulose) (HPC); higher = longer survival
Inconclusive results and toxic doses are left out.
property measured: T/C

| compound | T/C |
| --- | --- |
| Nc1ccc(/C=C/c2ccncc2)cc1 | 101 % of control |
| CC(=O)Nc1ccc(S(=O)(=O)N2CC2)cc1 | 102 % of control |
| O=[N+]([O-])c1ccc(S(=O)(=O)O/N=C2\c3ccccc3-c3ccc([N+](=O)[O-])cc32)cc1 | 97 % of control |

Query (compound): `Cc1cc(-c2ccccc2)c(-c2ccccn2)c2ccccc12` ; field requested: T/C 96 % of control

Please give the result for `CCOC(=O)c1ccc(C(=O)O)[n+]([O-])c1` too. 92 % of control

What do you get for `COC(=O)c1c(I)cccc1[N+](=O)[O-]` ? 97 % of control

Again, but for `COC(=O)c1cccc(C)c1NC(=O)NCCCl` 96 % of control

Again, but for `CSc1ccc(NC(=O)Nc2ccc(S(N)(=O)=O)cc2)cc1` 104 % of control

Now the same for `Cc1ccc(CNc2ccc(Cl)cc2)cc1` 96 % of control

Let us now turn to `N#CCCN(C(=O)COc1ccc(Cl)cc1Cl)C1CCCCC1` 95 % of control

----------
The reader will find reported T/C values listed item by item below.
# Test system: L1210 leukemia ip in BDF1 mice, survival T/C
# assay protocol: NCI In Vivo Anticancer Drug Screen. Data for tumor model L1210 Leukemia (intraperitoneal) in B6D2F1 (BDF1) mice
# setup conditions: endpoint: mean survival time; dose: 100.0 mg/kg/injection; schedule: Q04DX002 (ip); vehicle: saline; higher = longer survival
Inconclusive results and toxic doses are left out.

Example results:
| molecule | T/C |
| --- | --- |
| Clc1ccccc1C(N1CCCCC1)N1CCCCC1 | 88 % of control |
| Nc1ccc2cc(S(=O)(=O)O)cc(S(=O)(=O)O)c2c1 | 95 % of control |
| CCCCCCCCC(=O)N1CCCC(C)C1 (configuration not stated) | 104 % of control |
| CCOc1ccc(Nc2nc(=O)[nH]c3ccccc23)cc1CN(CCCl)CCCl | 111 % of control |
| COC(=O)C1=C2c3ccccc3NC(=O)N2NC1C(=O)OC (configuration not stated) | 90 % of control |
| C1C[N+]2(CCO1)CC[N+]1(CCOCC1)CC2 | 104 % of control |

We next turn to a different molecule, shown below.
I have this molecule here, CC1CCCN(C(=O)Nc2ccccc2)C1 (configuration not stated) , and I need its recorded T/C. 104 % of control
